Entry source: patent US20240335364A1

Task for the reader: assign each of the following compounds its reported RQ value HSPB8.
# Tested on: HSPB8
# Assay method text: Modulation of HSPB8 gene expression of keratinocytes (real-time qPCR, RQ)
# Format: cell-based, human
# Set-up: key: RQ: expression relative to DMSO vehicle control (qPCR)
# Condition: nHEK, 24 h, 0.0005%; Example 1
No unit in the answer, please; the number alone is enough.

Q. Report RQ value HSPB8 for O=C(/C=C/c1ccc(O)c(O)c1)O[C@H]1[C@H](O)C[C@](O)(C(=O)O)C[C@H]1OC(=O)/C=C/c1ccc(O)c(O)c1 [4,5-Dicaffeoylquinic acid, 4,5-dicaffeoylquinic acid] tested on HSPB8.
A. 4.2

Q. Report RQ value HSPB8 for O=C(/C=C/c1ccc(O)c(O)c1)O[C@@H]1CC(O)(C(=O)O)C[C@@H](OC(=O)/C=C/c2ccc(O)c(O)c2)C1O (stereo partly shown) [3,5-Dicaffeoylquinic acid, 3,5-dicaffeoylquinic acid] tested on HSPB8.
A. 6.2

Q. Report RQ value HSPB8 for O=C(/C=C/c1ccc(O)c(O)c1)O[C@@H]1C[C@](OC(=O)/C=C/c2ccc(O)c(O)c2)(C(=O)O)C[C@@H](O)[C@H]1O [1,5-Dicaffeoylquinic acid, 1,5-dicaffeoylquinic acid] tested on HSPB8.
A. 2.8

Q. Report RQ value HSPB8 for O=C(/C=C/c1ccc(O)c(O)c1)O[C@@H]1[C@H](O)C[C@@](O)(C(=O)O)C[C@H]1OC(=O)/C=C/c1ccc(O)c(O)c1 [3,4-Dicaffeoylquinic acid, 3,4-dicaffeoylquinic acid] tested on HSPB8.
A. 7.3
